- assay.system: T1, Rhesus D antigen (human, UniProt Q02161 2-417)
- T1 construct: whole, on cells; Presented on RhD(+) erythrocytes; also called RhD; RhD antigen
- T1 sequence (looked up): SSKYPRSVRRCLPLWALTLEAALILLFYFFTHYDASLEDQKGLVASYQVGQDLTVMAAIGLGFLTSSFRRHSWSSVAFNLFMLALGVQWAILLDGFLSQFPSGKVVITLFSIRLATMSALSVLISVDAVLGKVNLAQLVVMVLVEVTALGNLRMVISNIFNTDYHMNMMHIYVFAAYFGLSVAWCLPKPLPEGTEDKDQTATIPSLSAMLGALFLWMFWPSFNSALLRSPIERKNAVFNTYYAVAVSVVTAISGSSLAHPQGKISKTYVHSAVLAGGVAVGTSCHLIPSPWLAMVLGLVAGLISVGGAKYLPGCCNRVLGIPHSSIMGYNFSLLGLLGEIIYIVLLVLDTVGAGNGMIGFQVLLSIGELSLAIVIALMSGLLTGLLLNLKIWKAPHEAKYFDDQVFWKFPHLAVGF
- method.notes: agglutination assay, Fab periplasmic extract on RhD(+)/RhD(-) RBC mix
parameter: binding result

RhD240.125A09 (Fab, V domains shown, Tested as Fab in E. coli periplasmic extract (VH on human gamma 1 CH1, vector Em351)) VH: QLQLQESGPGLVKPSGTLSLTCAVSGGSMRSSNWWTWVRQPPGKGLEWIGEIHHGGSTNYNPSLQSRVTISVDKSKNRFSLKLSSVTAADTAVYHCARGRSYYDSSGHSFRGLVPFDIWGQGTMVTVSS VL: DIQMTQSPSTLSASVGDRVTITCRASQSISSWLAWYQQKPGKAPKLLVYKTSSLEGGVPSRFSGSGSGTEFSLTIFRLQSDDFATYYCQQYNSFPYTFGQGTKLEFTR	binds
RhD192.119G06 (Fab, V domains shown, Tested as Fab in E. coli periplasmic extract (VH on human gamma 1 CH1, vector Em351)) VH: QVQLVESGGGLVKPGGSLRLSCAASGFTFSSYAMNWVRQAPGKGLEWVSSISGTSSYIYYADSVKGRFTIFRDNAKSSVYLQMNSLRVEDTAVYYCARDRWWGMVRRVFPTYPFDYWGQGTLVTVSS VL: DIQLTQSPSSVSASVGDRVTITCRASQGINNLLAWYQQKPGKAPKLLIYAASNLQSGVPSRFSGSGSGTDFTLTINSLQPEDFATYYCQQANSFPLTFGGGTKVEIKR	binds
